Experiment: NCI Yeast Anticancer Drug Screen. Data for the bub3 strain (AID 167)
Conditions: S. cerevisiae bub3 mutant strain, at 50.0 µM, hits give high values
About 79,000 compounds went through this panel and 15% of them were active in at least one assay; those are over-represented in the sample as a whole.
PROPERTY MEASURED: growth inhibition (%)
Your answer is read as %, so omit the unit and give the number.

The examples below pair each entry with its known result.
input: For the molecule shown here, O=Cc1cc2c(cc1Cl)OCO2 , give the reported growth inhibition.
output: -8.4

input: Try the molecule Cc1[nH]ccc(=O)c1OC(=O)C12CC3CC(CC(C3)C1)C2
output: 2.7

input: Try the molecule CCC(=O)Oc1ccccc1C(C)C
output: -6.25

input: Try the molecule OCC(O)C(OC1OC(CO)C(O)C(O)C1O)c1nn(-c2ccc(F)cc2)c2nc3cc(Cl)c(Cl)cc3cc12 (configuration not stated)
output: 6.45

input: Try the molecule COc1cccc(NC(=O)NCCN(C)c2ccccc2)c1
output: 23.1

Further cases:
input: For the molecule shown here, CCCC(=O)Nc1cc([N+](=O)[O-])c([N+](=O)[O-])cc1OC , give the reported growth inhibition.
output: 13.8

input: Try the molecule COc1ccc(OC)c(/C=C2/C(=O)N(c3ccccc3)N=C2C)c1
output: 15.5

input: Try the molecule CC(=O)Oc1cc(OC(C)=O)c(OC(C)=O)c2c1CCCC2
output: 16.4

input: Try the molecule CCCCNC(=O)c1cccc(OC)c1OC
output: -5.65

input: Try the molecule CCCCn1cnc2c(SCc3ccc(Cl)cc3Cl)nc(N)nc21
output: 15.3

input: Try the molecule CCC(C)OC(=O)/C=C/c1ccccc1 (configuration not stated)
output: -10.2

input: Try the molecule Cc1cc2c(c(O)c1-c1c(C)cc(O)c3c1C(=O)C=CC3=O)C(=O)C=CC2=O
output: -27.9
